// reported pIC50 per item
target_or_test_system: CyclinE1/CDK2 (Homo sapiens)
Construct: purchased Eurofins, discovery 14-475
assay_info: Fluorescence Polarization (FP) competitive binding assay, Cyclin E1/Cdk2;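 further: readings taken after two-hour equilibration at room temperature in HEPES buffer with NaCl, DTT, NP-40 and BSA, IC50 fitted from eight-concentration serial dilution series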
run_parameters: 10 nM Cyclin E1/Cdk2, 2 nM FAM probe; average of 2-3 independent experiments; read-out: Cyclin E FP IC50
*1 amine or outer side, *2 acyl side, *3 side chain or, on linkers, in order; H or OH if unused. Where a SMILES comes first, the peptide text is derived from it. Bridges are numbered along the chain shown (N, C = ends). [ ]: non-standard residue; d: D form. The star is where a group is joined. X53 = CN1[C@@H]2CC[C@H]1CN(c1ccc(-c3ccc(Cl)cc3C[C@@H](C(=O)[*:2])N(C)[*:1])cc1)C2; NMePhe(5-Cl,2-O(2-Pym)) = CN[C@@H](Cc1cc(Cl)ccc1Oc1ncccn1)C(=O)O; NMehhhLys(Me) = CN([C@@H](CCCCCCCN(C)[*:3])C(=O)[*:2])[*:1]; X180 = CN([C@@H](Cc1cc(F)ccc1-c1cnn2c1CCC2)C(=O)[*:2])[*:1]; X51 = CSc1cncc(-c2ccc(Cl)cc2C[C@@H](C(=O)[*:2])N(C)[*:1])c1; X44 = Cc1nnc(-c2ccc(Cl)cc2C[C@@H](C(=O)[*:2])N(C)[*:1])o1; NMe(hhhLys) = CN([C@@H](CCCCCCCN[*:3])C(=O)[*:2])[*:1]; Cyclobutanecarbonyl(1-CF3) = O=C(C1(C(F)(F)F)CCC1)*; cBuCO(3,3-F2-1-CF3) = O=C(C1(C(F)(F)F)CC(F)(F)C1)*; Pro(trans-4-F) = O=C(O)[C@@H]1C[C@@H](F)CN1; Gly(cPr) = N[C@H](C(=O)O)C1CC1
Scale: pIC50 equals -log10([C]), with [C] in mol/L.

Example entries begin here.
molecule | target_or_test_system | pIC50
Cc1nnc(-c2ccc(Cl)cc2C[C@H]2C(=O)N(C)CCCCC=CC[C@H](N(C)C(=O)[C@@H](NC(=O)[C@@H]3C[C@@H](F)CN3C(=O)C3(C(F)(F)F)CCC3)C3CC3)C(=O)N[C@@H](CC(C)C)C(=O)N2C)o1 | CyclinE1/CDK2 (Homo sapiens) | 6.77
CC(C)C[C@@H]1NC(=O)[C@@H](N(C)C(=O)[C@@H](NC(=O)[C@@H]2C[C@@H](F)CN2C(=O)C2(C(F)(F)F)CC(F)(F)C2)C2CC2)CCCCCCCN(C)C(=O)[C@H](Cc2cc(F)ccc2-c2cnn3c2CCC3)N(C)C1=O [Example 148] ({cBuCO(3,3-F2-1-CF3)}-[Pro(trans-4-F)][Gly(cPr)][NMehhhLys(Me)]L[X180]; lactam 3-C) | CyclinE1/CDK2 (Homo sapiens) | 6.51
CC(C)C[C@@H]1NC(=O)[C@@H](N(C)C(=O)[C@@H](NC(=O)[C@@H]2C[C@@H](F)CN2C(=O)C2(C(F)(F)F)CC(F)(F)C2)C2CC2)CCCCCCCN(C)C(=O)[C@H](Cc2cc(Cl)ccc2-c2ccc(N3C[C@H]4CC[C@@H](C3)N4C)cc2)N(C)C1=O [Example 362] ({cBuCO(3,3-F2-1-CF3)}-[Pro(trans-4-F)][Gly(cPr)][NMehhhLys(Me)]L[X53]; lactam 3-C) | CyclinE1/CDK2 (Homo sapiens) | 6.22
Cc1nnc(-c2ccc(Cl)cc2C[C@H]2C(=O)N(C)CCCCCCC[C@H](N(C)C(=O)[C@@H](NC(=O)[C@@H]3C[C@@H](F)CN3C(=O)C3(C(F)(F)F)CC(F)(F)C3)C3CC3)C(=O)N[C@@H](CC(C)C)C(=O)N2C)o1 [Example 162] ({cBuCO(3,3-F2-1-CF3)}-[Pro(trans-4-F)][Gly(cPr)][NMehhhLys(Me)]L[X44]; lactam 3-C) | CyclinE1/CDK2 (Homo sapiens) | 6.66
CSc1cncc(-c2ccc(Cl)cc2C[C@H]2C(=O)N(C)CCCCCCC[C@H](N(C)C(=O)[C@@H](NC(=O)[C@@H]3C[C@@H](F)CN3C(=O)C3(C(F)(F)F)CC(F)(F)C3)C3CC3)C(=O)N[C@@H](CC(C)C)C(=O)N2C)c1 [Example 202] ({cBuCO(3,3-F2-1-CF3)}-[Pro(trans-4-F)][Gly(cPr)][NMehhhLys(Me)]L[X51]; lactam 3-C) | CyclinE1/CDK2 (Homo sapiens) | 5.83

Form field, pIC50 with CyclinE1/CDK2 (Homo sapiens), item CC(C)C[C@@H]1NC(=O)[C@@H](N(C)C(=O)[C@@H](NC(=O)[C@@H]2C[C@@H](F)CN2C(=O)C2(C(F)(F)F)CCC2)C2CC2)CCCCCCCNC(=O)[C@H](Cc2cc(Cl)ccc2Oc2ncccn2)N(C)C1=O [Example 158] ({Cyclobutanecarbonyl(1-CF3)}-[Pro(trans-4-F)][Gly(cPr)][NMe(hhhLys)]L[NMePhe(5-Cl,2-O(2-Pym))]; lactam 3-C) : 6.68
